target: serotonine (5-HT) reuptake in synaptosomes (Rattus norvegicus, UniProt P31652); construct: in synaptosomes as described in WO 97/16451; assay: In vitro inhibition of 5-HT reuptake in synaptosomes; details: 3H-5-HT, as described in WO 97/16451, read-out: 5-HT-uptake IC50
Sequence (P31652 whole entry): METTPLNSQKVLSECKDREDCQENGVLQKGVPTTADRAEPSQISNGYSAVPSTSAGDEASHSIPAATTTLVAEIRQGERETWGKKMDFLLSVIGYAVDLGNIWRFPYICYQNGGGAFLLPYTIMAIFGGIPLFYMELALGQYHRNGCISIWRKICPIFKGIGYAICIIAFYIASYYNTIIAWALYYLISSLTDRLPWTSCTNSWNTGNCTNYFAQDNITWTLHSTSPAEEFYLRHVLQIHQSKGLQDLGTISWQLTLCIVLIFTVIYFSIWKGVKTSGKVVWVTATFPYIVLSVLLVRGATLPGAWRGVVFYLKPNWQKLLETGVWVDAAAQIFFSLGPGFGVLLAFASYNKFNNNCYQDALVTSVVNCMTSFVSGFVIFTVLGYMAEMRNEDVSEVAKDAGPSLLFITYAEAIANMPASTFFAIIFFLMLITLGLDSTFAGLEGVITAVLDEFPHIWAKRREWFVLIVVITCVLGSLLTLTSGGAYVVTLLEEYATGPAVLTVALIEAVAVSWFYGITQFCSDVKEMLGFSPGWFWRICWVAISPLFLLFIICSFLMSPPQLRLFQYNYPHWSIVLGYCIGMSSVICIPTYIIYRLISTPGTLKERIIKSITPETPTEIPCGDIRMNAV
Quantity Name: IC50 (nM)
// units = nM; emit number, no label

Example compounds with recorded IC50:
{"columns": ["Compound", "Tested Target", "Measurement"],
 "data": [
  ["O=c1cc(-c2ccccc2)c2ccc(O[C@@H]3C[C@H]4CC[C@@H](C3)N4)cc2o1 [4th Compound of Example 2]", "serotonine (5-HT) reuptake in synaptosomes (Rattus norvegicus, UniProt P31652)", 29],
  ["O=c1oc2cc(O[C@@H]3C[C@H]4CC[C@@H](C3)N4)ccc2cc1-c1cccc(F)c1 [6th Compound of Example 2]", "serotonine (5-HT) reuptake in synaptosomes (Rattus norvegicus, UniProt P31652)", 5.8]
]}

For the next question, use this compound.
So what's the measured IC50 for this one? O=c1oc2cc(O[C@@H]3C[C@H]4CC[C@@H](C3)N4)ccc2cc1-c1ccccc1 [1st Compound of Example 2] 6
